- assayedTarget: T1, human LgR5 ECD (amino acids 22-557 fused to His-Fc expressed in a baculovirus system, or amino acids 22-558 … (human, UniProt O75473 22-557))
- T1 construct: not shown: C-terminal His-tagged Fc
- T1 sequence: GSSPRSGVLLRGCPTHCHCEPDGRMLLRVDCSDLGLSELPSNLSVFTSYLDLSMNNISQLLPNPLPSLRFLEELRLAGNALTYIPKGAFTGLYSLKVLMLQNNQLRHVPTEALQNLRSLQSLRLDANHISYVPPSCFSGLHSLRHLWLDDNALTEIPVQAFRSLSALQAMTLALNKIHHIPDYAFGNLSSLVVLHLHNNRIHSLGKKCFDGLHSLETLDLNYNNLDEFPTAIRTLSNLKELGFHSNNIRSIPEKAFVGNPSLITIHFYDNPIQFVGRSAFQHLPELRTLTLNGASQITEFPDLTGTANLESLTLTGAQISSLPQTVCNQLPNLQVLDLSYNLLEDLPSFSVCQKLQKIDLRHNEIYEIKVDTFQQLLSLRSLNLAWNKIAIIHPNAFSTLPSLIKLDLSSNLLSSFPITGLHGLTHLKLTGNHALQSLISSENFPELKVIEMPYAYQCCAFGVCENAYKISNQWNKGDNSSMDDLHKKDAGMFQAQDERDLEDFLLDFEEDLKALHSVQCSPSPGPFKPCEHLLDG
- method: BIAcore-3000 SPR, IgG captured on goat anti-human Fc, human LgR5 ECD-Fc injected, 25 C, 1:1 Langmuir model
Lab note: anything with koff at or over 0.0009 s⁻¹ counts as 1 (yes); the rest go in 0 (no).

1. h8E11.v7 (antibody, V domains shown, VH CDR graft + 71R/78A; also called hu8E11.v7) VH: EVQLVQSGAEVKKPGASVKVSCKASGYTFSAYWIEWVRQAPGQGLEWIGEILPGSDSTDYNEKFKVRVTITRDTSTSTAYLELSSLRSEDTAVYYCARGGHYGSLDYWGQGTLVTVSS VL: DIVMTQSPDSLAVSLGERATINCRASESVDNYGNSFMHWYQQKPGQPPKLLIYLASNLESGVPDRFSGSGSRTDFTLTISSLQAEDVAVYYCQQNYEDPFTFGQGTKVEIKR    1 (yes)
2. chimeric monoclonal antibody 8E11 (antibody, human IgG1, V domains shown, also called ch8E11; chimeric 8E11) VH: QVQLQQSGTELMKPGASVKISCKATGYTFSAYWIEWIKQRPGHGLEWIGEILPGSDSTDYNEKFKVKATFSSDTSSNTVYIQLNSLTYEDSAVYYCARGGHYGSLDYWGQGTTLKVSS VL: NIVLTQSPASLAVSLGQRATISCRASESVDNYGNSFMHWYQQKPGQPPKLLIYLASNLESGVPARFSGSGSRTDFTLTIDPVEADDAATYYCQQNYEDPFTFGSGTKVEIKR    0 (no)
3. h8E11.v8 (antibody, V domains shown, VH CDR graft + 71A/78A; also called hu8E11.v8) VH: EVQLVQSGAEVKKPGASVKVSCKASGYTFSAYWIEWVRQAPGQGLEWIGEILPGSDSTDYNEKFKVRVTITADTSTSTAYLELSSLRSEDTAVYYCARGGHYGSLDYWGQGTLVTVSS VL: DIVMTQSPDSLAVSLGERATINCRASESVDNYGNSFMHWYQQKPGQPPKLLIYLASNLESGVPDRFSGSGSRTDFTLTISSLQAEDVAVYYCQQNYEDPFTFGQGTKVEIKR    1 (yes)
4. h8E11.v1 (antibody, V domains shown, VH CDR graft + 71S/78V; also called hu8E11.v1) VH: EVQLVQSGAEVKKPGASVKVSCKASGYTFSAYWIEWVRQAPGQGLEWIGEILPGSDSTDYNEKFKVRVTITSDTSTSTVYLELSSLRSEDTAVYYCARGGHYGSLDYWGQGTLVTVSS VL: DIVMTQSPDSLAVSLGERATINCRASESVDNYGNSFMHWYQQKPGQPPKLLIYLASNLESGVPDRFSGSGSGTDFTLTISSLQAEDVAVYYCQQNYEDPFTFGQGTKVEIKR    0 (no)
5. humanized monoclonal antibody 8E11.v2 (antibody, human IgG1, kappa, V domains shown, It was assessed as an IgG; also called hu8E11.v2; hu8E11v2) VH: EVQLVQSGAEVKKPGASVKVSCKASGYTFSAYWIEWVRQAPGQGLEWIGEILPGSDSTDYNEKFKVRATFTSDTSTSTVYLELSSLRSEDTAVYYCARGGHYGSLDYWGQGTLVTVSS VL: DIVMTQSPDSLAVSLGERATINCRASESVDNYGNSFMHWYQQKPGQPPKLLIYLASNLESGVPDRFSGSGSGTDFTLTISSLQAEDVAVYYCQQNYEDPFTFGQGTKVEIKR    0 (no)
6. h8E11.v6 (antibody, V domains shown, VH CDR graft + 71A/78A; also called hu8E11.v6) VH: EVQLVQSGAEVKKPGASVKVSCKASGYTFSAYWIEWVRQAPGQGLEWIGEILPGSDSTDYNEKFKVRVTITADTSTSTAYLELSSLRSEDTAVYYCARGGHYGSLDYWGQGTLVTVSS VL: DIVMTQSPDSLAVSLGERATINCRASESVDNYGNSFMHWYQQKPGQPPKLLIYLASNLESGVPDRFSGSGSGTDFTLTISSLQAEDVAVYYCQQNYEDPFTFGQGTKVEIKR    1 (yes)
7. h8E11.v5 (antibody, V domains shown, VH CDR graft + 71R/78A; also called hu8E11.v5) VH: EVQLVQSGAEVKKPGASVKVSCKASGYTFSAYWIEWVRQAPGQGLEWIGEILPGSDSTDYNEKFKVRVTITRDTSTSTAYLELSSLRSEDTAVYYCARGGHYGSLDYWGQGTLVTVSS VL: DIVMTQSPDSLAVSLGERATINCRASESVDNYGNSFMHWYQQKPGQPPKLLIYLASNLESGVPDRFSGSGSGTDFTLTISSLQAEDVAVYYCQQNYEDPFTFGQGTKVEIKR    1 (yes)
8. h8E11.v3 (antibody, V domains shown, VH CDR graft + 71S/78V; also called hu8E11.v3) VH: EVQLVQSGAEVKKPGASVKVSCKASGYTFSAYWIEWVRQAPGQGLEWIGEILPGSDSTDYNEKFKVRVTITSDTSTSTVYLELSSLRSEDTAVYYCARGGHYGSLDYWGQGTLVTVSS VL: DIVMTQSPDSLAVSLGERATINCRASESVDNYGNSFMHWYQQKPGQPPKLLIYLASNLESGVPDRFSGSGSRTDFTLTISSLQAEDVAVYYCQQNYEDPFTFGQGTKVEIKR    0 (no)
